Reference for the values: ChEMBL document CHEMBL3856276

test: AUC (0 to infinity) in rat at 20 mg/kg, ig via oral gavage; assay type: ADME, organism-based; conditions: in vivo
Property: AUC(0-inf) (ng·h/mL)
Reply with just the number (in ng·h/mL).

Complete the entry with AUC(0-inf) for `COc1ccc2[nH]c3c(c2c1)C[C@H]1c2cc4c(cc2CCN1C3)OCO4`
2280

###

experiment: Mean residence time in rat at 10 mg/kg, iv; assay type: ADME, organism-based; details: in vivo
Property: MRT (h)
Express it in h; write the number only.

Find the measured MRT of `COc1ccc2[nH]c3c(c2c1)C[C@H]1c2cc4c(cc2CCN1C3)OCO4` and report it.
1.79

###

experiment: Half life in rat at 20 mg/kg, ig via oral gavage; type: ADME, organism-based; conditions: in vivo
Property: half-life (h)
Record the value in h, omitting the unit from your answer.

State its half-life for this molecule: `COc1ccc2[nH]c3c(c2c1)C[C@H]1c2cc4c(cc2CCN1C3)OCO4`
1.18

###

assay: Mean residence time in rat at 20 mg/kg, ig via oral gavage; type: ADME, organism-based; conditions: in vivo
Property: MRT
I'd appreciate it if you included the unit after the number.

Please indicate MRT recorded for `COc1ccc2[nH]c3c(c2c1)C[C@H]1c2cc4c(cc2CCN1C3)OCO4`
2.52 h

###

Reported inhibition values follow for various molecules
Target: Alpha-1A adrenergic receptor (Homo sapiens) (UniProt P35348)
Sequence (whole entry): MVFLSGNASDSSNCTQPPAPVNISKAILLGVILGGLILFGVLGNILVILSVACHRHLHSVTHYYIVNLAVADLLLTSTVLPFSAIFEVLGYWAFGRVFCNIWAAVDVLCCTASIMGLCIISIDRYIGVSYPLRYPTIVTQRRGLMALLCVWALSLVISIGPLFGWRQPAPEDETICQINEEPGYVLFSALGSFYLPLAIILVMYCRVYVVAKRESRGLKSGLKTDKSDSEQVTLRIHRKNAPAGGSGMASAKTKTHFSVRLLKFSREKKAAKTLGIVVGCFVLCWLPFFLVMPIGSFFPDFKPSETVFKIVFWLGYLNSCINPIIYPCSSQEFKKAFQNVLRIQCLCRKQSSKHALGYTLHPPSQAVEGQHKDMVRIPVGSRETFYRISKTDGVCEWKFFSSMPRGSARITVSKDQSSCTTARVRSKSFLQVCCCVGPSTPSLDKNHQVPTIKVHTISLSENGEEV
Test: Antagonist activity at human full-length N-terminal SNAP-tagged alpha1A adrenoceptor expressed in HEK293 cells assessed as inhibition of agonist-induced calcium mobilization at 10 uM preincubated for 10 mins followed by agonist addition by fluo-4 AM dye-based assay relative to control
Assay type: functional, cell-based
# value in %; strip the unit string

// worked examples, inhibition included
>>> val("COc1ccc2[nH]c3c(c2c1)CC1c2cc(O)c(OC)cc2CCN1C3 (stereo not drawn)")
56
>>> val("CCCOc1cc2c(cc1OC)C1Cc3c([nH]c4ccc(OC)cc34)CN1CC2 (stereo not drawn)")
21

Now for a further molecule.
Supply measured inhibition of COc1ccc(C2c3[nH]c4ccccc4c3CC3c4ccc(OC)cc4CCN32)cc1 (stereo not drawn) in your reply.
80

###

// values below are reported pIC50
target: Alpha-1D adrenergic receptor (Homo sapiens, UniProt P25100)
Sequence (P25100 whole entry): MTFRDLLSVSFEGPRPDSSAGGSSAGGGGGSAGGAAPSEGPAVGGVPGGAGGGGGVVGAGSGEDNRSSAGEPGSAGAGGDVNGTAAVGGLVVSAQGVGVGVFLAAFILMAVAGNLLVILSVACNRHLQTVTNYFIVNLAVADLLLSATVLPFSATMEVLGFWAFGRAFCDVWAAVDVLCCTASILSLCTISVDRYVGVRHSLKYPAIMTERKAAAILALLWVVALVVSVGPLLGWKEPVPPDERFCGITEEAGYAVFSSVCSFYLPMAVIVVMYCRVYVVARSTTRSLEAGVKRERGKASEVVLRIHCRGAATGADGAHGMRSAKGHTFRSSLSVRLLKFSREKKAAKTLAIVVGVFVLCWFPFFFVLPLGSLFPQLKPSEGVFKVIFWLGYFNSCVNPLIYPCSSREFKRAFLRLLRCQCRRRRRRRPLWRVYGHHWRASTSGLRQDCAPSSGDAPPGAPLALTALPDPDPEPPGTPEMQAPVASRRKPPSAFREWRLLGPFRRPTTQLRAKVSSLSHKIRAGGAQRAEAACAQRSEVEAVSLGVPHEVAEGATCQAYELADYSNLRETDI
# pIC50 is unitless: minus log10 of the molar concentration; print number only

>>> val("CCOc1ccccc1OCCN[C@H](C)Cc1ccc(OC)c(S(N)(=O)=O)c1 [TAMSULOSIN]")
8.85

Next up:
Please respond with reported pIC50 (system Alpha-1D adrenergic receptor (Homo sapiens, UniProt P25100)) for `COc1ccc2[nH]c3c(c2c1)C[C@H]1c2cc4c(cc2CCN1C3)OCO4` .
6.60

###

assay: AUC (0 to t) in rat at 10 mg/kg, iv; format: ADME, organism-based; conditions: in vivo
Property: AUC(0-t)
Remember to follow the number with its unit.

Please report the measured AUC(0-t) for `COc1ccc2[nH]c3c(c2c1)C[C@H]1c2cc4c(cc2CCN1C3)OCO4`
1870 ng·h/mL

###

molecular target: Alpha-1A adrenergic receptor (Homo sapiens) (UniProt P35348); assay: Antagonist activity at human full-length N-terminal SNAP-tagged alpha1A adrenoceptor expressed in HEK293 cells assessed as inhibition of agonist-induced calcium mobilization at 10 uM preincubated for 10 mins followed by agonist addition by fluo-4 AM dye-based assay relative to control; assay type: functional, cell-based
Property: inhibition (%)
# value in %; strip the unit string

Reference set, count: 4
>>> val("CCOc1cc2c(cc1OC)CCN1Cc3[nH]c4ccc(OC)cc4c3CC21 (stereo not given)")
75
>>> val("COc1ccc2[nH]c3c(c2c1)C[C@@H]1c2cc4c(cc2CCN1C3)OCO4")
100
>>> val("Fc1ccc(C2c3[nH]c4ccccc4c3CC3c4cc5c(cc4CCN32)OCO5)cc1 (stereo not given)")
0
>>> val("CCCOc1cc2c(cc1OC)CCN1Cc3[nH]c4ccc(OC)cc4c3CC21 (stereo not given)")
100

Give inhibition for COc1cccc2[nH]c3c(c12)CC1c2cc4c(cc2CCN1C3)OCO4 (stereo not given)
100

Specify measured inhibition for Fc1ccc2c3c([nH]c2c1)CN1CCc2cc4c(cc2C1C3)OCO4 (stereo not given) .
100

###

Let's go through some recorded pIC50 values for Voltage-gated inwardly rectifying potassium channel KCNH2 (Homo sapiens) together.
pIC50 is a log-scale quantity: -log10 of the concentration expressed in molar.

Reference set (2 entries):
>>> val("COc1ccc2[nH]c3c(c2c1)C[C@H]1c2cc4c(cc2CCN1C3)OCO4")
4.88
>>> val("C[C@H](Cc1cc2c(c(C(N)=O)c1)N(CCCO)CC2)NCCOc1ccccc1OCC(F)(F)F [SILODOSIN]")
5.09

// moving on: another record for pIC50
Provide measured pIC50 on Voltage-gated inwardly rectifying potassium channel KCNH2 (Homo sapiens) for COc1ccc2[nH]c3c(c2c1)CC1c2cc4c(cc2CCN1C3)OCO4 (stereo not drawn) please.
Sequence (Q12809 whole entry): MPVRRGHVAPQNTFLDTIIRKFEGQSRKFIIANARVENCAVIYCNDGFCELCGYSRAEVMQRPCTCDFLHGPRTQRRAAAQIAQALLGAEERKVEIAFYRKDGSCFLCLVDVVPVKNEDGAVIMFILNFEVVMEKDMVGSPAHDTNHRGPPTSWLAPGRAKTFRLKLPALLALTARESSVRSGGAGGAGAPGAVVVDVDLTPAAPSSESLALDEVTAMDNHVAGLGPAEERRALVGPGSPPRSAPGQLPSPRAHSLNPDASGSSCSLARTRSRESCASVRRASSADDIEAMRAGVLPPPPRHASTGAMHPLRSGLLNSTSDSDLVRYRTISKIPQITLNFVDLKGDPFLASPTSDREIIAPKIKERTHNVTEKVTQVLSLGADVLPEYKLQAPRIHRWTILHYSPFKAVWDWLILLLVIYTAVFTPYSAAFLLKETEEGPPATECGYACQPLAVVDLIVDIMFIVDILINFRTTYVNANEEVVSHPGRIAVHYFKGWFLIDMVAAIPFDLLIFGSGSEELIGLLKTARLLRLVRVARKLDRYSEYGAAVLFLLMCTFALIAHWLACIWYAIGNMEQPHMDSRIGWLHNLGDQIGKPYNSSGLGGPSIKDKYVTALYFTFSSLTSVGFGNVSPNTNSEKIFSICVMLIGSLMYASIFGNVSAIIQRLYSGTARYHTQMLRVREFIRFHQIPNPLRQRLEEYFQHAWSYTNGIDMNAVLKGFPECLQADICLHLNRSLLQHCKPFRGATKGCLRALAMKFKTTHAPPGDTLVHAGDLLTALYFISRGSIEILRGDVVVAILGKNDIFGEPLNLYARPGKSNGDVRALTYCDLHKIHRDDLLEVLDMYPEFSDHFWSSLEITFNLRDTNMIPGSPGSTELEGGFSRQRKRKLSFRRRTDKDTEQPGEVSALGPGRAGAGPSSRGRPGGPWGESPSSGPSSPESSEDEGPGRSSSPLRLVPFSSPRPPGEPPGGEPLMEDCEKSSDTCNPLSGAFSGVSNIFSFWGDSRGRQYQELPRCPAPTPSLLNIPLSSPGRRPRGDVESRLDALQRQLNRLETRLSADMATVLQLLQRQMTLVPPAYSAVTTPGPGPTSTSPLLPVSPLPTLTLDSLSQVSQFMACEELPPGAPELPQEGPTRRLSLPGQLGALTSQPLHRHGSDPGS
4.78

###

experiment: Oral bioavailability in rat at 20 mg/kg, ig via gavage; format: ADME, organism-based; details: in vivo
Property: bioavailability (%)
Number in %, nothing else.

For the molecule `COc1ccc2[nH]c3c(c2c1)C[C@H]1c2cc4c(cc2CCN1C3)OCO4` , give its reported bioavailability.
60.9

###

species: Homo sapiens; assay: Selectivity ratio of IC50 for human full-length N-terminal SNAP-tagged alpha1D adrenoceptor to IC50 for human full-length N-terminal SNAP-tagged alpha1A adrenoceptor
Property: Ratio IC50

Tell me its Ratio IC50 given COc1ccc2c3c([nH]c2c1)CN1CCc2cc4c(cc2C1C3)OCO4 (stereo not drawn) as the entry.
> 16.8

Output Ratio IC50 of COc1ccc2[nH]c3c(c2c1)CC1c2cc4c(cc2CCN1C3)OCO4 (stereo not drawn)
229

Hello, please tell me recorded Ratio IC50 for this one: Fc1ccc2[nH]c3c(c2c1)CC1c2cc4c(cc2CCN1C3)OCO4 (stereo not drawn)
33.1

###

experiment: Half life in rat at 10 mg/kg, iv; format: ADME, organism-based; conditions: in vivo
Property: half-life
Please report the result as a number followed by the unit.

Answer with the recorded half-life of `COc1ccc2[nH]c3c(c2c1)C[C@H]1c2cc4c(cc2CCN1C3)OCO4` only.
58.8 min

###

experiment: Cmax in rat at 20 mg/kg, ig via oral gavage; assay type: ADME, organism-based; conditions: in vivo
Property: Cmax (ng/mL)
Express it in ng/mL; write the number only.

Give the reported value of Cmax for this record: `COc1ccc2[nH]c3c(c2c1)C[C@H]1c2cc4c(cc2CCN1C3)OCO4`
684

###

assay: Cmax in rat at 10 mg/kg, iv; format: ADME, organism-based; set-up: dose 10 mg/kg, route intravenous; settings: in vivo
Property: Cmax (ng/mL)
Express the result in ng/mL but write the number alone.

// Input: `COc1ccc2[nH]c3c(c2c1)C[C@H]1c2cc4c(cc2CCN1C3)OCO4` . Output its Cmax only.
855

###

Protein target, amino acids: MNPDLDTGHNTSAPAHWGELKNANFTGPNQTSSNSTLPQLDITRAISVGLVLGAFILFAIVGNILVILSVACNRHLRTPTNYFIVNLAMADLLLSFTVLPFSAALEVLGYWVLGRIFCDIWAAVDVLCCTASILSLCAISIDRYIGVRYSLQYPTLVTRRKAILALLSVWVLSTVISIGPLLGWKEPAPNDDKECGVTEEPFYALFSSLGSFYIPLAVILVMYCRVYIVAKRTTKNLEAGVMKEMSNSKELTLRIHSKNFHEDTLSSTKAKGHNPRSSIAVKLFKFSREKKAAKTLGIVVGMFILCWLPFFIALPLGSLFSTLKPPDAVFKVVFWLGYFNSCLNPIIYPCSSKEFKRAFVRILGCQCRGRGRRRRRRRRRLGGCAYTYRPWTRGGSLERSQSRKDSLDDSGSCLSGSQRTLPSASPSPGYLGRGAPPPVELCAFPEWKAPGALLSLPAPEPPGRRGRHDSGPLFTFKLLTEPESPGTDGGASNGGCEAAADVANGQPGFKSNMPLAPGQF
Property: IC50

These solved cases illustrate the format of a correct answer.
>>> val("c1ccc2c3c([nH]c2c1)CN1CCc2cc4c(cc2C1C3)OCO4 (centres undefined)")
"> 10 µM"
>>> val("CCOc1ccccc1OCCN[C@H](C)Cc1ccc(OC)c(S(N)(=O)=O)c1 [TAMSULOSIN]")
"0.0048 µM"
>>> val("COc1ccc2[nH]c3c(c2c1)C[C@H]1c2cc4c(cc2CCN1C3)OCO4")
"> 10 µM"

Next compound, please.
Please indicate IC50 recorded for COc1ccc2c3c([nH]c2c1)CN1CCc2cc4c(cc2C1C3)OCO4 (centres undefined)
> 10 µM
